assayRemarks: A CellTox Green Cytotoxicity Assay to monitor cytotoxicity in HEK293 cells - 32 hour (AID 1224881); also: % is scaled to controls: 0 for no effect and ±100 for the full control effect; nearly all actives have a fitted effect of over 40% in size
reportedConditions: CellTox Green fluorescence; series mostly up to 35.3 µM
Results filed as inconclusive are left out. Activity calls are given as the source filed them. Calls follow the shape of the dose curve; as a rule, active = well fitted activation curve with a large enough effect in the repeat runs; inconclusive = weak or mixed curves; inactive = flat fitted curve, though single readings scatter.
measurementName: outcome

Look over these answered cases.
compound	outcome
C=C(C)CS(=O)(=O)O	inactive
C1OCOCO1	inactive
CCOC(=O)Nc1ccc(NCc2ccc(F)cc2)nc1N	inactive
N=C(N)c1ccccc1	inactive
Cc1ccc(=O)n(-c2ccccc2)c1	inactive

For record O=c1cc(CO)occ1O the listed outcome is inactive

----------
measuredOn: Cytochrome P450 2C9 (Homo sapiens)
assayRemarks: Cytochrome P450 Family 2 Subfamily C Member 9 (CYP2C9) small molecule antagonists: luciferase reporter qHTS assay (AID 1671198); also: % is scaled to controls: 0 for no effect and ±100 for the full control effect; nearly all actives have a fitted effect of over 50% in size
reportedConditions: P450-Glo CYP2C9 enzyme assay, luciferin luminescence; series mostly up to 115 µM
Records with an inconclusive call do not appear. Activity calls are given as the source filed them. Calls follow the shape of the dose curve; as a rule, active = well fitted inhibition curve with a large enough effect in the repeat runs; inconclusive = weak or mixed curves; inactive = no such curve, though single readings can be large or run the other way.
I would appreciate it if you answered using one of these outcomes: yes (active), no (inactive)

Some solved entries appear below for comparison.
molecule	classification
CN(C)CCCNCCCN(C)C	no
CCC(=O)OC(C)c1ccccc1 (centres undefined)	no
OCCCC1CCCCC1	no
C1OCOCO1	no
O=C(O)CNC(=O)c1ccc([N+](=O)[O-])cc1	no

Outcome logged for CC(NC(CCc1ccccc1)C(=O)O)C(=O)N1C(=O)N(C)CC1C(=O)O (centres undefined) in this assay:
no

How was CCSC(=O)N(CC(C)C)CC(C)C classified in this test?
no

What is the recorded call for this molecule in the test? O=C1OC(=O)C2CCCCC12 (centres undefined)
no

----------
Each entry below lists one item and its recorded max response value.
assayRemarks: qHTS RealTime-Glo MT Cell Viability Assay in HEK293 cells - 40 hour (AID 1224874); also: % is scaled to controls: 0 for no effect and ±100 for the full control effect; nearly all actives have a fitted effect of over 50% in size
reportedConditions: RealTime-Glo luminescence; active compounds read low
Inconclusive results are not listed.
Use % as the unit, but write only the number.

compound	max response, %
CC(C)(O)C(=O)c1ccccc1	1.69
C=C[Si](OC(=C)C)(OC(=C)C)OC(=C)C	13.4
Cc1sccc1Br	6.36
O=C(O)c1ccccc1OP(=O)(O)O	-0.358
CN1CCN(c2cc3c(cc2F)c(=O)c(C(=O)O)cn3-c2ccc(F)cc2)CC1	-0.934
CCCCCCCCS(=O)(=O)Cl	19.7
CN(C)CCCSc1ccccc1NC(=O)/C=C/c1ccccc1	-11.2
CC(C)CCCC(C)N (centres undefined)	5.83
COC(=O)[C@@H](N)Cc1ccc(O)c(O)c1	2.16
O=C1OC(=O)C2CCCCC12 (centres undefined)	1.13

// max response value for CCc1cccc2c(CCO)c[nH]c12 : 0.292

// max response value for CCC(=O)OC(C)c1ccccc1 (centres undefined) : -2.17

----------
measuredOn: Nuclear receptor subfamily 1 group I member 2 (Homo sapiens)
assayRemarks: Human pregnane X receptor (PXR) small molecule agonists, qHTS assay (AID 1346982); also: nearly all actives have a fitted effect of over 35% in size; as to activation: % is scaled to controls: 0 for no effect and ±100 for the full control effect
reportedConditions: PXR-Luc HepG2, CYP3A4 luciferase reporter, 24 h; series mostly up to 92.4 µM
Results filed as inconclusive are left out. Active and inactive are the calls of the source. The call rests on the fitted dose curve; in most records, active means well fitted activation curve with a large enough effect in the repeat runs; inconclusive means weak or mixed curves; inactive means no such curve, though single readings can be large or run the other way.
The reply should be one of these categories: y = active, n = inactive

Past entries and their recorded results:
compound	measuredOn	classification
CC(=O)Nc1ccc(S(N)(=O)=O)cc1	Nuclear receptor subfamily 1 group I member 2 (Homo sapiens)	n
CCCCCCOC(=O)CCCCC(=O)OCCCCCC	Nuclear receptor subfamily 1 group I member 2 (Homo sapiens)	n
O=Cc1cccc([N+](=O)[O-])c1	Nuclear receptor subfamily 1 group I member 2 (Homo sapiens)	n
CC(=O)OCC(=O)[C@@]1(O)CCC2C3CCC4=CC(=O)CC[C@]4(C)C3[C@@H](O)C[C@@]21C (stereo not given in full)	Nuclear receptor subfamily 1 group I member 2 (Homo sapiens)	n
c1cnc(N2CCN(Cc3ccc4c(c3)OCO4)CC2)nc1	Nuclear receptor subfamily 1 group I member 2 (Homo sapiens)	n
CC(NC(CCc1ccccc1)C(=O)O)C(=O)N1C(=O)N(C)CC1C(=O)O (stereo not given)	Nuclear receptor subfamily 1 group I member 2 (Homo sapiens)	n
NS(=O)(=O)c1cc(C(=O)O)cc(N2CCCC2)c1Oc1ccccc1	Nuclear receptor subfamily 1 group I member 2 (Homo sapiens)	n
CCOC(=O)Nc1ccc(NCc2ccc(F)cc2)nc1N	Nuclear receptor subfamily 1 group I member 2 (Homo sapiens)	n

For O=C1NC(=O)[C@@]2(CCOc3ccc(F)cc32)N1 , what call appears in the results of this test?
n

Entry CCCCCCCCCCCCCCCCC : call = ?
n

Would you mind telling me which call this test gave CC/C=C\CC/C=C/C(OCC)OCC ?
y

For NC(=O)c1cn(Cc2c(F)cccc2F)nn1 , which call appears in the assay record?
n

Check the results log: what was the call for CS(=O)(=O)O ?
n

Would you mind telling me which call this test gave NC(=O)COCCN1CCN(C(c2ccccc2)c2ccc(Cl)cc2)CC1 (stereo not given) ?
n

Recorded call for CCO/C([O-])=N/c1c[n+](N2CCOCC2)no1 ?
n

What did this assay record as the result for CCOC(=O)C(=O)OCC ?
n

Would you mind telling me which call this test gave COC(C)(C)CCCC(C)CC=O (stereo not given) ?
n

State the result this test recorded for CCCCOCCOCCOCCCC .
n

# fetch the recorded call for Cc1ccc(C#N)cc1 here
n

Test call, this compound: C=COCC1CCC(CO)CC1 (stereo not given)
n

Short answer needed: outcome of this test for CCCCCCCCCCCC ?
n

Could you check what this test reported for O=c1cc(CO)occ1O ?
n

Can you look up the reported call for O=C1CCCN1C1CCCCC1 for me?
n

Taken from PubChem BioAssay (Tox21).
